biological target: Interleukin-8 (Homo sapiens)
Sequence (P10145 whole entry): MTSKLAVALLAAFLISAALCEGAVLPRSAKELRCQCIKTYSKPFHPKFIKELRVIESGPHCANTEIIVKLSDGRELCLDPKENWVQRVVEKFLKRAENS
Where a SMILES comes first, the peptide text is derived from it. [ ]: non-standard residue; d: D form. Aun = NCCCCCCCCCCC(=O)O; Aoc = NCCCCCCCC(=O)O; Ahx = NCCCCCC(=O)O; GABA = NCCCC(=O)O
measuredQuantity: pKi
The read-out pKi is expressed as -log10 of concentration in moles per litre.

CSCC[C@H](NC(C)=O)C(=O)N[C@@H](Cc1c[nH]c2ccccc12)C(=O)N[C@@H](CC(=O)O)C(=O)N[C@@H](Cc1ccccc1)C(=O)N[C@@H](CC(=O)O)C(=O)N[C@@H](CC(=O)O)C(=O)NCCCCCCCC(=O)N[C@@H](CCSC)C(=O)N1CCC[C@H]1C(=O)N1CCC[C@H]1C(=O)N[C@@H](C)C(=O)N[C@@H](CC(=O)O)C(=O)N[C@@H](CCC(=O)O)C(=O)N[C@@H](CC(=O)O)C(=O)N[C@@H](Cc1ccc(O)cc1)C(=O)N[C@@H](CO)C(=O)N1CCC[C@H]1C(N)=O (Ac-MWDFDD[Aoc]MPPADEDYSP-NH2)
4.92

[Q] Consider the compound shown here: CSCC[C@H](NC(C)=O)C(=O)N[C@@H](Cc1c[nH]c2ccccc12)C(=O)N[C@@H](CC(=O)O)C(=O)N[C@@H](Cc1ccccc1)C(=O)N[C@@H](CC(=O)O)C(=O)N[C@@H](CC(=O)O)C(=O)NCCCCCC(=O)N[C@@H](CCSC)C(=O)N1CCC[C@H]1C(=O)N1CCC[C@H]1C(=O)N[C@@H](C)C(=O)N[C@@H](CC(=O)O)C(=O)N[C@@H](CCC(=O)O)C(=O)N[C@@H](CC(=O)O)C(=O)N[C@@H](Cc1ccc(O)cc1)C(=O)N[C@@H](CO)C(=O)N1CCC[C@H]1C(N)=O (Ac-MWDFDD[Ahx]MPPADEDYSP-NH2) What is its recorded pKi?
[A] 5.15

[Q] One more compound: CSCC[C@H](NC(C)=O)C(=O)N[C@@H](Cc1c[nH]c2ccccc12)C(=O)N[C@@H](CC(=O)O)C(=O)N[C@@H](Cc1ccccc1)C(=O)N[C@@H](CC(=O)O)C(=O)N[C@@H](CC(=O)O)C(=O)NCCCC(=O)N[C@@H](CCSC)C(=O)N1CCC[C@H]1C(=O)N1CCC[C@H]1C(=O)N[C@@H](C)C(=O)N[C@@H](CC(=O)O)C(=O)N[C@@H](CCC(=O)O)C(=O)N[C@@H](CC(=O)O)C(=O)N[C@@H](Cc1ccc(O)cc1)C(=O)N[C@@H](CO)C(=O)N1CCC[C@H]1C(N)=O (Ac-MWDFDD[GABA]MPPADEDYSP-NH2)
[A] 4.85

[Q] CSCC[C@H](NC(C)=O)C(=O)N[C@@H](Cc1c[nH]c2ccccc12)C(=O)N[C@@H](CC(=O)O)C(=O)N[C@@H](Cc1ccccc1)C(=O)N[C@@H](CC(=O)O)C(=O)N[C@@H](CC(=O)O)C(=O)NCCCCCCCCCCC(=O)N[C@@H](CCSC)C(=O)N1CCC[C@H]1C(=O)N1CCC[C@H]1C(=O)N[C@@H](C)C(=O)N[C@@H](CC(=O)O)C(=O)N[C@@H](CCC(=O)O)C(=O)N[C@@H](CC(=O)O)C(=O)N[C@@H](Cc1ccc(O)cc1)C(=O)N[C@@H](CO)C(=O)N1CCC[C@H]1C(N)=O (Ac-MWDFDD[Aun]MPPADEDYSP-NH2) , same question.
[A] 5.22

Data origin: ChEMBL document CHEMBL1129841
